- measured.target: MAP4K4 (HGK) (Homo sapiens, UniProt O95819)
- Sequence (O95819 whole entry, species assumed): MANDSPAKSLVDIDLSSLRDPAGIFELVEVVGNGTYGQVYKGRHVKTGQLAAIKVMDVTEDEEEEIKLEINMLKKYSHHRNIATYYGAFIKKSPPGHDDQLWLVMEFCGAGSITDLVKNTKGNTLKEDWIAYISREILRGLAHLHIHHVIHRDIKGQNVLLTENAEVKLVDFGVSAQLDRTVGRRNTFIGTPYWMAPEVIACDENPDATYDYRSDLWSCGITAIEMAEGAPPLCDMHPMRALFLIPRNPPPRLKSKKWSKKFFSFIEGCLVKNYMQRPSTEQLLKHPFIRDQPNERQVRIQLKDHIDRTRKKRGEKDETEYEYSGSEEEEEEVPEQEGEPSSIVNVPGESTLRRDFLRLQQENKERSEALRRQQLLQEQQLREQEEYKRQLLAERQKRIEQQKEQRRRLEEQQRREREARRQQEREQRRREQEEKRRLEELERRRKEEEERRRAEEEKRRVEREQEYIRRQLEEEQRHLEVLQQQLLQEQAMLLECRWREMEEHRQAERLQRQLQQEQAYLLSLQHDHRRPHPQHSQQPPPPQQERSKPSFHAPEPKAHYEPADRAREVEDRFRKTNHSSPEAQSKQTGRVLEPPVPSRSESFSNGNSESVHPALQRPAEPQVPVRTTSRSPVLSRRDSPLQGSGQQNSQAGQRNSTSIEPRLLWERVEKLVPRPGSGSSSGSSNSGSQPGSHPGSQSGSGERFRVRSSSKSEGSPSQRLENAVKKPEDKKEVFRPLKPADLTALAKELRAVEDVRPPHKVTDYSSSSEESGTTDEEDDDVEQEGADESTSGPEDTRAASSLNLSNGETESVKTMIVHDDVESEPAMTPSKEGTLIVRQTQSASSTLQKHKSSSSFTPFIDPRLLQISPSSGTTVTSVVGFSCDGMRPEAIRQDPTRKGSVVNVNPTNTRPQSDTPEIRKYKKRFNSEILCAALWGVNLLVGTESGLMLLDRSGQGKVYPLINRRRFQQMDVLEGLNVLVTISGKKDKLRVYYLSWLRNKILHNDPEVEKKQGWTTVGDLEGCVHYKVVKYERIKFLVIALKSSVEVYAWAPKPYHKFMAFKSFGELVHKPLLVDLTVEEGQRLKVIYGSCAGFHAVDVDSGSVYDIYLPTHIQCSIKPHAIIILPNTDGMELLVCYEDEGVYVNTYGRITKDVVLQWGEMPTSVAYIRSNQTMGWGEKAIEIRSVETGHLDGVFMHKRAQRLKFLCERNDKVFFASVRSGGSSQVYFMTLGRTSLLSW
- assay.procedure: FRET-based coupled-enzyme protein kinase inhibition assay
- Assay type: biochemical
- study.conditions: compound at 10 µM, 1% DMSO
metric: inhibition at 10 µM (%)

smiles.text: C[C@@H](NC(=O)OC[C@H]1O[C@@H](n2cnc3c(N)ncnc32)[C@H](O)[C@@H]1O)c1ccc(Cl)cc1
inhibition at 10 µM (%): 16

I. N#CCCN1CCN(C(=O)OC[C@H]2O[C@@H](n3cnc4c(N)ncnc43)[C@H](O)[C@@H]2O)CC1
II. CN1CCN(CCNC(=O)OC[C@H]2O[C@@H](n3cnc4c(N)ncnc43)[C@H](O)[C@@H]2O)CC1
III. CS(=O)(=O)N1CC2(CCN(C(=O)OC[C@H]3O[C@@H](n4cnc5c(N)ncnc54)[C@H](O)[C@@H]3O)CC2)c2ccccc21
Prompt line: Arrange items by their inhibition at 10 µM values in increasing order. Please respond by ranking the labels in the order requested.
Response line: I, II, III
(I: -5%, II: 13%, III: 68%)

----------
- measured.target: KIT (Homo sapiens, UniProt P10721)
- Sequence (P10721 26-976, species assumed): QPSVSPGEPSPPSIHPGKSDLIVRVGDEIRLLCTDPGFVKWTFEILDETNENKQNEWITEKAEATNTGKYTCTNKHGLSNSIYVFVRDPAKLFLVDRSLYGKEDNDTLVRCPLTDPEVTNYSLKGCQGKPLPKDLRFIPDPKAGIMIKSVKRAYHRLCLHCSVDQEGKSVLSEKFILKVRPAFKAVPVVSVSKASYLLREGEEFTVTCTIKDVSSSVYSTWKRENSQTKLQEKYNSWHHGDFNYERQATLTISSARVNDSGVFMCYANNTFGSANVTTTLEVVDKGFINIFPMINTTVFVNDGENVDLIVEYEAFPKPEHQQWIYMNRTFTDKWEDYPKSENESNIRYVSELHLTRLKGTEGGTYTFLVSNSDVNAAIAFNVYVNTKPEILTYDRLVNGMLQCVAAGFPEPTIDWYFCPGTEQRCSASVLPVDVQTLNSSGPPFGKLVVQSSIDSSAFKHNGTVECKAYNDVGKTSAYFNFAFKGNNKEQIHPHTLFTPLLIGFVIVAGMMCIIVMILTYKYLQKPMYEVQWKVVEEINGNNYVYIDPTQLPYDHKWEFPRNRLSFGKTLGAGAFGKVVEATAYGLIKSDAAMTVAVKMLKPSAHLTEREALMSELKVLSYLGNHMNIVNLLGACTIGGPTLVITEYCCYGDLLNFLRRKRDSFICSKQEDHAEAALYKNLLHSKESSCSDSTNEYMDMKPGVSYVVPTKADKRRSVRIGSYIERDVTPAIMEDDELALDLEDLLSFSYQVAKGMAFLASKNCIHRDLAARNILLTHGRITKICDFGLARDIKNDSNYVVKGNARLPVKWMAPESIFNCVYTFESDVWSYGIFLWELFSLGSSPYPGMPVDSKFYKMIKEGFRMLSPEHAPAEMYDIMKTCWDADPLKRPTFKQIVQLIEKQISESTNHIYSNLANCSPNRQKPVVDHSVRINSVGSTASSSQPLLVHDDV
- assay.procedure: FRET-based coupled-enzyme protein kinase inhibition assay
- Assay type: biochemical
- study.conditions: compound at 10 µM, 1% DMSO
metric: inhibition at 10 µM (%)

A. CS(=O)(=O)N1CC2(CCN(C(=O)OC[C@H]3O[C@@H](n4cnc5c(N)ncnc54)[C@H](O)[C@@H]3O)CC2)c2ccccc21 [Compound C98]
B. Nc1ncnc2c1ncn2[C@@H]1O[C@H](COC(=O)N2CCN(CCc3ccccc3)CC2)[C@@H](O)[C@H]1O [Compound C26]
C. CN(C)CCNC(=O)OC[C@H]1O[C@@H](n2cnc3c(N)ncnc32)[C@H](O)[C@@H]1O [Compound C85]
D. Nc1ncnc2c1ncn2[C@@H]1O[C@H](COC(=O)N2CCC(Cc3ccc(F)cc3)C2)[C@@H](O)[C@H]1O (stereo partly shown) [Compound C66]
Prompt line: List the 4 entries from lowest inhibition at 10 µM to highest inhibition at 10 µM value. Dear reader, please state the labels in the requested order.
Response line: D, B, C, A
(D: -7%, B: 6%, C: 10%, A: 20%)

----------
- measured.target: MAPK1 (ERK2) (Homo sapiens, UniProt P28482)
- Sequence (P28482 whole entry, species assumed): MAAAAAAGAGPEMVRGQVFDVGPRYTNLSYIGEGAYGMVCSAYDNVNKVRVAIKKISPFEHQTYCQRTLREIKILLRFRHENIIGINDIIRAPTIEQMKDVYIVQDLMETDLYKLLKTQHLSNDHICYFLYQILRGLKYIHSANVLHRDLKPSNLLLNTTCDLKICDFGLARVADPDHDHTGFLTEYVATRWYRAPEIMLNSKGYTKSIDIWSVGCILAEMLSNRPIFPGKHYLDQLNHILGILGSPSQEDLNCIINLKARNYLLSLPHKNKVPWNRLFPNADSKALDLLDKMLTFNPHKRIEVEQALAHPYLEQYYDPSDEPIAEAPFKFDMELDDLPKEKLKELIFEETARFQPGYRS
- assay.procedure: FRET-based coupled-enzyme protein kinase inhibition assay
- Format: biochemical
- study.conditions: compound at 10 µM, 1% DMSO
metric: inhibition at 10 µM (%)

compound: Nc1ncnc2c1ncn2[C@@H]1O[C@H](COC(=O)N2CCC[C@H]2CO)[C@@H](O)[C@H]1O [Compound C9]
measured.target: MAPK1 (ERK2) (Homo sapiens, UniProt P28482)
metric: inhibition at 10 µM
assay.result: 11
//
compound: CN1CCN(CCNC(=O)OC[C@H]2O[C@@H](n3cnc4c(N)ncnc43)[C@H](O)[C@@H]2O)CC1 [Compound C46]
measured.target: MAPK1 (ERK2) (Homo sapiens, UniProt P28482)
metric: inhibition at 10 µM
assay.result: 9
//
compound: Nc1ncnc2c1ncn2[C@@H]1O[C@H](COC(=O)N2CCN(CCc3ccccc3)CC2)[C@@H](O)[C@H]1O [Compound C26]
measured.target: MAPK1 (ERK2) (Homo sapiens, UniProt P28482)
metric: inhibition at 10 µM
assay.result: 11
//
compound: CC(C)N1CCC(NC(=O)OC[C@H]2O[C@@H](n3cnc4c(N)ncnc43)[C@H](O)[C@@H]2O)CC1 [Compound C19]
measured.target: MAPK1 (ERK2) (Homo sapiens, UniProt P28482)
metric: inhibition at 10 µM
assay.result: 7
//
compound: Nc1ncnc2c1ncn2[C@@H]1O[C@H](COC(=O)NC[C@H](O)CO)[C@@H](O)[C@H]1O [Compound C8]
measured.target: MAPK1 (ERK2) (Homo sapiens, UniProt P28482)
metric: inhibition at 10 µM
assay.result: 16

P. Nc1ncnc2c1ncn2[C@@H]1O[C@H](COC(=O)NCCCc2nc3ccccc3[nH]2)[C@@H](O)[C@H]1O [Compound C1]
Q. CS(=O)(=O)N1CC2(CCN(C(=O)OC[C@H]3O[C@@H](n4cnc5c(N)ncnc54)[C@H](O)[C@@H]3O)CC2)c2ccccc21 [Compound C98]
R. Nc1ncnc2c1ncn2[C@@H]1O[C@H](COC(=O)N2CCN(Cc3ccccc3)CC2CO)[C@@H](O)[C@H]1O (stereo partly shown) [Compound C13]
Prompt line: Sort (3 compounds) by inhibition at 10 µM: min first. Respond with the label ranking, as requested.
Response line: P, R, Q

1. CN(C)CCNC(=O)OC[C@H]1O[C@@H](n2cnc3c(N)ncnc32)[C@H](O)[C@@H]1O [Compound C85]
2. Nc1ncnc2c1ncn2[C@@H]1O[C@H](COC(=O)N2CCS(=O)(=O)CC2)[C@@H](O)[C@H]1O [Compound C100]
Prompt line: Name the one with the greater inhibition at 10 µM value, either 1 or 2 as given. Answer = label.
Response line: 2
(2: 13%, 1: 8%)

a. Nc1ncnc2c1ncn2[C@@H]1O[C@H](COC(=O)N2CCN(C(=O)N3CCOCC3)CC2)[C@@H](O)[C@H]1O [Compound C89]
b. N#CCCN1CCN(C(=O)OC[C@H]2O[C@@H](n3cnc4c(N)ncnc43)[C@H](O)[C@@H]2O)CC1 [Compound C70]
Prompt line: Kindly identify which of a and b has the larger recorded inhibition at 10 µM value. Indicate your choice by writing its label.
Response line: b
(b: 16%, a: 9%)

----------
- measured.target: INSR (Homo sapiens)
- Sequence (P06213 28-1382, species assumed): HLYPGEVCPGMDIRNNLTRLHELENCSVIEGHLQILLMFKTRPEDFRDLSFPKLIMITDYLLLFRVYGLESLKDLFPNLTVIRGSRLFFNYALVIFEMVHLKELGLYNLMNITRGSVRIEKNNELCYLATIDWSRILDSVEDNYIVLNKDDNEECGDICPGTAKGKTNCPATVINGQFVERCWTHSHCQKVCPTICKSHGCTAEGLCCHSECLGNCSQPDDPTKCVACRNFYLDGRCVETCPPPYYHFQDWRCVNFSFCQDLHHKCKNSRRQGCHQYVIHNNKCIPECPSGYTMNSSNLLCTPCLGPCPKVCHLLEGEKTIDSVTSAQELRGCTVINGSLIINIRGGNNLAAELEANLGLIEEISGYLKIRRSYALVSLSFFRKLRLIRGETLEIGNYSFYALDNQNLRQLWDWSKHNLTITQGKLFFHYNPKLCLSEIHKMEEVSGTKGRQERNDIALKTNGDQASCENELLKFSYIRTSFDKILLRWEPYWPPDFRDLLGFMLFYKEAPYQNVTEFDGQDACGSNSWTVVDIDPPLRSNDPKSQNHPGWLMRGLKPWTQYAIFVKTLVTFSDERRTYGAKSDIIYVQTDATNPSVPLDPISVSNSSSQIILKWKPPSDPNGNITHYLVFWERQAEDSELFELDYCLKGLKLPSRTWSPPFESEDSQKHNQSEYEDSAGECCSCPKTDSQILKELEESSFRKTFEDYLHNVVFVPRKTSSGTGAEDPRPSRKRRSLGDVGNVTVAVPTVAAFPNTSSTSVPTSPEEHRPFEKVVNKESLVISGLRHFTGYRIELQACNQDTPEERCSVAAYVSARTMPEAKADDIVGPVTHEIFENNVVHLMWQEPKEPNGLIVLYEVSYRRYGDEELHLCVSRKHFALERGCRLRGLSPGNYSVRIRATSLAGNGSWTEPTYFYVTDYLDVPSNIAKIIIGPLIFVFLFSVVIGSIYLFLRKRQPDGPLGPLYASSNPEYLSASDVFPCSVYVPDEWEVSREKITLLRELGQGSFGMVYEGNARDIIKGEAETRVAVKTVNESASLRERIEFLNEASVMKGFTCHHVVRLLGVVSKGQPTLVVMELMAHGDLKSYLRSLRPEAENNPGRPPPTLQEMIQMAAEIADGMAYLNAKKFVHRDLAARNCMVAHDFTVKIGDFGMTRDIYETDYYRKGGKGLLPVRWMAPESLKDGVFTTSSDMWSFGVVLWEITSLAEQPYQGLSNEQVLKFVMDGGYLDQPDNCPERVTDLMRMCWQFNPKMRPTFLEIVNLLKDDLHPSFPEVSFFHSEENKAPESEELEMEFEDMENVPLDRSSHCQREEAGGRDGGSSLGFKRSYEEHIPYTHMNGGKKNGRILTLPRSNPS
- assay.procedure: FRET-based coupled-enzyme protein kinase inhibition assay
- Assay type: biochemical
- study.conditions: compound at 10 µM, 1% DMSO
metric: inhibition at 10 µM (%)

1. Nc1ncnc2c1ncn2[C@@H]1O[C@H](COC(=O)N2CCS(=O)(=O)CC2)[C@@H](O)[C@H]1O [Compound C100]
2. C[C@@H](NC(=O)OC[C@H]1O[C@@H](n2cnc3c(N)ncnc32)[C@H](O)[C@@H]1O)c1ccc(Cl)cc1 [Compound C4]
Prompt line: Task for the reader: decide whether 1 or 2 has the larger inhibition at 10 µM. // output: label of the selected item
Response line: 2

a. CC(C)N1CCC(NC(=O)OC[C@H]2O[C@@H](n3cnc4c(N)ncnc43)[C@H](O)[C@@H]2O)CC1 [Compound C19]
b. CS(=O)(=O)N1CC2(CCN(C(=O)OC[C@H]3O[C@@H](n4cnc5c(N)ncnc54)[C@H](O)[C@@H]3O)CC2)c2ccccc21 [Compound C98]
c. CN(C)CCNC(=O)OC[C@H]1O[C@@H](n2cnc3c(N)ncnc32)[C@H](O)[C@@H]1O [Compound C85]
d. Nc1ncnc2c1ncn2[C@@H]1O[C@H](COC(=O)NC[C@H](O)CO)[C@@H](O)[C@H]1O [Compound C8]
Prompt line: Order the 4 compounds from highest to lowest inhibition at 10 µM. Ranked list of labels, please, in the requested order.
Response line: c, d, a, b

a. Nc1ncnc2c1ncn2[C@@H]1O[C@H](COC(=O)N[C@@H]2CCN(Cc3ccccc3)C2)[C@@H](O)[C@H]1O [Compound C10]
b. Nc1ncnc2c1ncn2[C@@H]1O[C@H](COC(=O)NCCCc2nc3ccccc3[nH]2)[C@@H](O)[C@H]1O [Compound C1]
Prompt line: When a and b are compared, which has the higher number for inhibition at 10 µM? Indicate which entry you chose by stating its label.
Response line: a
(a: 3%, b: 0%)

----------
- measured.target: UniProtKB Q16539
- Sequence (Q16539 whole entry, species assumed): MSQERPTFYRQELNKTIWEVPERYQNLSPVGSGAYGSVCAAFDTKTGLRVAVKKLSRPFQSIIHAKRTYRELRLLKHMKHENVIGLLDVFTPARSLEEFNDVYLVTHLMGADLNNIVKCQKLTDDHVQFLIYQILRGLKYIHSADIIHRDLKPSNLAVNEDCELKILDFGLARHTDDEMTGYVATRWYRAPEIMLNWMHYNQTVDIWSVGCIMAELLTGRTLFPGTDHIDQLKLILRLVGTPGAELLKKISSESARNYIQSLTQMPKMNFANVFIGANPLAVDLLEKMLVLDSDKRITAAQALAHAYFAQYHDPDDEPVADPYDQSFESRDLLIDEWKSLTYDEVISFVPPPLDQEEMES
- assay.procedure: FRET-based coupled-enzyme protein kinase inhibition assay
- Format: biochemical
- study.conditions: compound at 10 µM, 1% DMSO
- Experimental: A biochemical assay was then performed in order to measure the protein kinase inhibition. It employed a fluorescence-based coupled-enzyme format and was based on the differential sensitivity of phosphorylated and non-phosphorylated peptides to proteolytic cleavage. […] A significant benefit of this ratiometric method for quantitating reaction progress is the elimination of well-to-well variations in FRET-peptide concentration and signal intensities. […]
metric: inhibition at 10 µM (%)

Use the examples below as a reference point.
molecule: Nc1ncnc2c1ncn2[C@@H]1O[C@H](COC(=O)N2CCC[C@H]2CO)[C@@H](O)[C@H]1O
metric: inhibition at 10 µM
assay.result: -4
--
molecule: N#CCCN1CCN(C(=O)OC[C@H]2O[C@@H](n3cnc4c(N)ncnc43)[C@H](O)[C@@H]2O)CC1
metric: inhibition at 10 µM
assay.result: 4
--
molecule: Nc1ncnc2c1ncn2[C@@H]1O[C@H](COC(=O)N2CCC(Cc3ccc(F)cc3)C2)[C@@H](O)[C@H]1O (stereo partly shown)
metric: inhibition at 10 µM
assay.result: 18
--
molecule: CN(C)CCNC(=O)OC[C@H]1O[C@@H](n2cnc3c(N)ncnc32)[C@H](O)[C@@H]1O
metric: inhibition at 10 µM
assay.result: 0
--
molecule: CS(=O)(=O)N1CC2(CCN(C(=O)OC[C@H]3O[C@@H](n4cnc5c(N)ncnc54)[C@H](O)[C@@H]3O)CC2)c2ccccc21
metric: inhibition at 10 µM
assay.result: 20

P. Nc1ncnc2c1ncn2[C@@H]1O[C@H](COC(=O)N[C@@H]2CCN(Cc3ccccc3)C2)[C@@H](O)[C@H]1O
Q. Nc1ncnc2c1ncn2[C@@H]1O[C@H](COC(=O)NCCCc2nc3ccccc3[nH]2)[C@@H](O)[C@H]1O
Prompt line: Kindly compare P with Q and tell me which has the lower inhibition at 10 µM figure. Give the label of your selection.
Response line: Q
